Reported values of combination Emax for individual entries
# System: TE-15 (Esophageal Squamous Cell Carcinoma)
# run_description: combination Emax (second highest fraction inhibited in the dose matrix, 72 h); higher = more inhibition; extreme values may be limits of the assay
endpoint_label: combination Emax

>>> result("CN(CCO)CC[C@H](CSc1ccccc1)Nc1ccc(S(=O)(=O)NC(=O)c2ccc(N3CCC([C@@H](O)c4ccccc4-c4ccc(Cl)cc4)CC3)cc2)cc1S(=O)(=O)C(F)(F)F [AZD4320] + Nc1ccn([C@@H]2O[C@H](CO)[C@@H](O)C2(F)F)c(=O)n1 [Gemcitabine] (first compound max 1 µM, 7x7, partner max 0.3 µM)")
0.994
>>> result("COc1cccc(OCCCN)c1-c1cc(Nc2cnc(C#N)cn2)n[nH]1 [Prexasertib] + C[C@@H]1COCCN1C2=NC(=NC(=C2)C3(CC3)[S@](=N)(=O)C)C4=C5C=CNC5=NC=C4 [AZD6738] (first compound max 1 µM, 7x7, partner max 10 µM)")
0.874
>>> result("CC1(C)CCC(CN2CCN(c3ccc(C(=O)NS(=O)(=O)c4ccc(NCC5CCOCC5)c([N+](=O)[O-])c4)c(Oc4cnc5[nH]ccc5c4)c3)CC2)=C(c2ccc(Cl)cc2)C1 [Venetoclax] + C=CCn1c(=O)c2cnc(Nc3ccc(N4CCN(C)CC4)cc3)nc2n1-c1cccc(C(C)(C)O)n1 [AZD1775] (first compound max 1 µM, partner max 1 µM)")
0.796

----------
# System: B-CPAP (Thyroid Gland Carcinoma)
# run_description: combination Emax (second highest fraction inhibited in the dose matrix, 72 h); higher = more inhibition; extreme values may be limits of the assay
endpoint_label: combination Emax

>>> result_number("COc1cc2ncnc(Nc3ccc(F)c(Cl)c3)c2cc1OCCCN1CCOCC1 [Gefitinib] + CC(C)n1c(=O)n(C)c2cnc3cc(F)c(-c4ccc(OCCCN5CCCCC5)nc4)cc3c21 [AZD1390] (first compound max 10 µM, 7x7, partner max 0.3 µM)")
0.108
>>> result_number("COc1nnc2ccc(N3CCC(c4ccc(OCCN5CCN(C)C(=O)[C@H]5C)cc4)CC3)nn12 [AZD5153] + CCN(CCO)CCCOc1ccc2c(Nc3cc(CC(=O)Nc4cccc(F)c4)[nH]n3)ncnc2c1 [AZD2811] (first compound max 1 µM, 7x7, partner max 1 µM)")
0.645
>>> result_number("COc1nnc2ccc(N3CCC(c4ccc(OCCN5CCN(C)C(=O)[C@H]5C)cc4)CC3)nn12 [AZD5153] + C=CCn1c(=O)c2cnc(Nc3ccc(N4CCN(C)CC4)cc3)nc2n1-c1cccc(C(C)(C)O)n1 [AZD1775] (first compound max 1 µM, partner max 1 µM)")
0.734
>>> result_number("Cc1nc(Nc2ncc(C(=O)Nc3c(C)cccc3Cl)s2)cc(N2CCN(CCO)CC2)n1 [Dasatinib] + CC(=O)Nc1cccc(-n2c(=O)n(C3CC3)c(=O)c3c(Nc4ccc(I)cc4F)n(C)c(=O)c(C)c32)c1 [Trametinib] (first compound max 2 µM, 7x7, partner max 1 µM)")
0.79
>>> result_number("CN(CCO)CC[C@H](CSc1ccccc1)Nc1ccc(S(=O)(=O)NC(=O)c2ccc(N3CCC([C@@H](O)c4ccccc4-c4ccc(Cl)cc4)CC3)cc2)cc1S(=O)(=O)C(F)(F)F [AZD4320] + CN(C)CCCOc1ccc(-c2ccc3ncc4c(c3c2)n(C2CCOCC2)c(=O)n4C)cn1 [AZD0156] (first compound max 1 µM, 7x7, partner max 1 µM)")
0.408
>>> result_number("CC1(C)CCC(CN2CCN(c3ccc(C(=O)NS(=O)(=O)c4ccc(NCC5CCOCC5)c([N+](=O)[O-])c4)c(Oc4cnc5[nH]ccc5c4)c3)CC2)=C(c2ccc(Cl)cc2)C1 [Venetoclax] + C1CN(CCC1(C(=O)N[C@@H](CCO)C2=CC=C(C=C2)Cl)N)C3=NC=NC4=C3C=CN4 [Capivasertib] (first compound max 1 µM, 7x7, partner max 3 µM)")
0.177
>>> result_number("CCc1c2c(nc3ccc(O)cc13)-c1cc3c(c(=O)n1C2)COC(=O)[C@]3(O)CC [SN-38] + CN(C)CCCOc1ccc(-c2ccc3ncc4c(c3c2)n(C2CCOCC2)c(=O)n4C)cn1 [AZD0156] (first compound max 0.3 µM, 7x7, partner max 1 µM)")
0.867
